Assign melting point to each entry below.

For `CSc1ncc(C(=O)O)n1Cc1ccccc1` the compound record lists melting point as 178 to 179 °C

For `Nc1ccc(Cl)cc1C(=O)O` the compound record lists melting point as 209 to 213 °C

For `FC(F)(F)c1nc2c(Cl)c(Cl)ccc2[nH]1` the compound record lists melting point as 214 °C

* * *

ENDPOINT NAME: melting point

For `Cc1cncc(N2CCNCC2)n1` the molecule record lists melting point as 49 to 51 °C

For CC1=C(C(=O)OCc2ccccc2)C(c2ccc3c(c2)OCO3)NC(=O)N1 (stereo unspecified) the molecule record lists melting point as 158 to 160 °C

For `CC(C)S(=O)(=O)c1cnc(N2CCCCC2)nc1N` the molecule record lists melting point as 155 to 158 °C

For `Cc1nc(-c2ccccc2)sc1C=O` the molecule record lists melting point as 111 to 113 °C

For `CCCCSc1sc(C(=O)OCC)c2c1C(=O)CCC2` the molecule record lists melting point as 70 to 73 °C

For `COc1ccc(Br)c(C(=O)NN)c1` the molecule record lists melting point as 165 to 166 °C

* * *

ENDPOINT NAME: melting point

For `Oc1ncc(C(F)(F)F)cc1Cl` the compound record lists melting point as 157 to 159 °C

For `O=C(O)Cc1ccccc1C(=O)O` the compound record lists melting point as 178 to 182 °C

For `O=C(Nc1cccc2cc(OC(=O)c3ccccc3)ccc12)c1ccccc1` the compound record lists melting point as 222 to 223 °C

* * *

ENDPOINT NAME: melting point

For `ClCc1ccccc1Cn1cncn1` the molecule record lists melting point as 52 to 57 °C

For COC1C(C2COC3(CCCCC3)O2)OC2OC3(CCCCC3)OC21 (configuration not stated) the molecule record lists melting point as 35 to 38 °C

For `CCOc1ccc(CO)cc1OC` the molecule record lists melting point as 54 to 59 °C

For `O=C(O)c1coc2c1C(=O)CCC2` the molecule record lists melting point as 140 to 143 °C

For `COc1ccccc1Oc1ccc(S(=O)(=O)Cl)cc1` the molecule record lists melting point as 54 to 56 °C

For `CCOC(=O)c1c(-c2ccc(Br)cc2)csc1N` the molecule record lists melting point as 120 to 122 °C

For `Nc1ccc(C(F)(F)F)cc1` the molecule record lists melting point as 38 °C

* * *

Assign melting point to each entry below.
Reply with just the number (in °C).

For `O=C(C(=O)c1ccco1)c1ccco1` the molecule record lists melting point as 164

For CCOC(=O)C1=C(C)NC(=O)NC1c1ccc(O)c(OC)c1 (configuration not stated) the molecule record lists melting point as 190

For `FCCl` the molecule record lists melting point as -133

* * *

Assign melting point to each entry below.

For `OC(c1ccc(-c2ccc(C(O)(C(F)(F)F)C(F)(F)F)cc2)cc1)(C(F)(F)F)C(F)(F)F` the compound record lists melting point as 125 to 126 °C

For `CSC(=NC#N)SC` the compound record lists melting point as 54 °C

For `COc1cc(OC)nc(NC(=O)NS(=O)(=O)c2ncccc2C(=O)N(C)C)n1` the compound record lists melting point as 145 °C

For O=C(NC(CO)C(=O)O)OCc1ccccc1 (racemic) the compound record lists melting point as 122 to 126 °C

For `O=c1cc(C(F)(F)F)c2cc3c4c(c2o1)CCCN4CCC3` the compound record lists melting point as 167 to 168 °C

For `COC(=O)Cc1nc(-c2ccccc2)sc1C` the compound record lists melting point as 42 to 44 °C
